Test system: CP291
Assay: qHTS profiling for inhibitors of Plasmodium falciparum proliferation (AID 504749); note: nearly all actives have a fitted effect of over 60% in size; note: potency is the fitted concentration of half-maximal effect
Settings: P. falciparum in erythrocytes, SYBR Green DNA, 72 h; series mostly up to 28.7 µM
Results filed as inconclusive are left out. Activity calls are given as the source filed them. Calls come from the whole dose curve; as a rule, active = well fitted inhibition curve with a large enough effect; inconclusive = small, poorly fitted or top-dose-only effect; inactive = flat fitted curve, though single readings scatter.
assay.endpoint: Potency

Reference set (5 entries):
Nc1ccc(S(=O)(=O)Nc2ncccn2)cc1 : inactive
CCC1=C[C@@H]2CN(C1)Cc1c([nH]c3ccccc13)[C@@](C(=O)OC)(c1cc3c(cc1OC)N(C)[C@@H]1[C@@](O)(C(=O)OC)[C@H](OC(C)=O)[C@]4(CC)C=CCN5CC[C@]31[C@@H]54)C2 : 3.01 µM (active)
CC(C)(C)NC(=O)[C@H]1CN(Cc2cccnc2)CCN1C[C@@H](O)C[C@@H](Cc1ccccc1)C(=O)N[C@H]1c2ccccc2C[C@H]1O : 15.1 µM (active)
C[C@H]1C[C@@H]2[C@@H]([C@@H](O)C[C@@]3(C)[C@H]2CC[C@]3(O)C(=O)CO)[C@@]2(C)C=CC(=O)C=C12 : inactive
O=C(O)CO.[NH2-].[NH2-].[Pt+2] : inactive

# batch: return Potency for each of the 5 compounds below
1. CN1c2cc(O)c(N=NC(N)=O)cc2CC1S(=O)(=O)O (stereo not given)
2. Nc1ccn([C@@H]2O[C@H](CO)[C@H](O)C2(F)F)c(=O)n1
3. Nc1ccn([C@@H]2CS[C@H](CO)O2)c(=O)n1
4. O=c1[nH]c(=O)n(C2CCCO2)cc1F (stereo not given)
5. CC=CC1=C(C(=O)O)N2C(=O)[C@H](NC(=O)[C@H](N)c3ccc(O)cc3)[C@@H]2SC1

1. inactive
2. 4.26 µM (active)
3. inactive
4. inactive
5. inactive
